# System: HIV-IIIb (wildtype)
# ASSAY_METHOD_TEXT: Antiviral assay in MT4 cells, HIV-IIIb wildtype
# Assay type: cell-based, HIV-1
# PARTICULARS: Human immunodeficiency virus 1, IIIB, MT4, 120 h, read-out: WT EC50
QUANTITY_MEASURED: EC50 (nM)
Respond numerically; units are nM and should not be typed.

>>> print(df.to_string())
                                   molecule  quantity_measured  recorded_result
0  COC(=O)N1CC(N2CCC(c3nn(C4CC4)c4ccc(-c5nc6cc(C)c([C@H](OC(C)(C)C)C(=O)O)c(-c7ccc(Cl)cc7)c6s5)nc34)CC2)C1 [Compound 180]               EC50                4
1  CCn1nc(C2CCN(C3COC3)CC2)c2nc(-c3nc4cc(C)c([C@H](OC(C)(C)C)C(=O)O)c(-c5ccc(Cl)cc5)c4s3)ccc21 [Compound 177]               EC50                3
2  Cc1cc2nc(-c3ccc4c(c3)c(N3CC(C)(C)N(C)C3=O)nn4C)sc2c(-c2ccc(Cl)cc2)c1[C@H](OC(C)(C)C)C(=O)O [Compound 122]               EC50               14

Now look at this one.
Record summary for Cc1cc2nc(-c3ccc4c(c3)c(C3CCOCC3)nn4C)sc2c(-c2ccc(Cl)cc2)c1[C@H](OC(C)(C)C)C(=O)O [Compound 19] : reported EC50 = 12

----------
Below is a list of entries, each paired with its recorded pEC50 value.
# Test system: HIV-IIIb IN T174I BT
# ASSAY_METHOD_TEXT: Antiviral assay in MT4 cells, HIV-IIIb IN T174I BT virus (from viral breakthrough)
# Assay type: cell-based, HIV-1
# PARTICULARS: Human immunodeficiency virus 1, IIIB, MT4, 120 h, read-out: T174I BT EC50, MT4 cells, HIV-IIIb IN T174I BT (viral breakthrough), 5 days, CellTiter-Glo
Quick note: pEC50 values are minus log10 of concentrations in mol/L.

COMPOUND	RECORDED_RESULT
COC(=O)N1CC[C@H](N2CCC(c3nn(C)c4ccc(-c5nc6cc(C)c([C@H](OC(C)(C)C)C(=O)O)c(-c7ccc(Cl)cc7)c6s5)cc34)CC2)C1 [Compound 162]	6.83
CCN1CCC(c2nn(C)c3ccc(-c4nc5cc(C)c([C@H](OC(C)(C)C)C(=O)O)c(-c6ccc(Cl)cc6)c5s4)cc23)CC1 [Compound 126]	6.26
Cc1cc2nc(-c3ccc4c(c3)c(C3CN(C(C)C)C3)nn4C)sc2c(-c2ccc(Cl)cc2)c1[C@H](OC1CC1)C(=O)O [Compound 55]	6.43
Cc1cc2nc(-c3ccc4c(c3)c(N3CCC(N5CCC5)CC3)nn4C)sc2c(-c2ccc(Cl)cc2)c1[C@H](OC(C)(C)C)C(=O)O [Compound 136]	6.07

Lab entry: HIV-IIIb IN T174I BT assay, compound COCCN1CC[C@H](c2nn(C)c3ccc(-c4nc5cc(C)c([C@H](OC(C)(C)C)C(=O)O)c(-c6ccc(Cl)cc6)c5s4)cc23)C1 (single isomer, unassigned) [Compound 68] , pEC50 = 5.94

Lab entry: HIV-IIIb IN T174I BT assay, compound Cc1cc2nc(-c3ccn4ncc(C5CCN(C6COC6)CC5)c4n3)sc2c(-c2ccc(Cl)cc2)c1[C@H](OC(C)(C)C)C(=O)O [Compound 109] , pEC50 = 6.69

Lab entry: HIV-IIIb IN T174I BT assay, compound CCn1nc(C2CCN(C3COC3)CC2)c2cc(-c3nc4cc(C)c([C@H](OC(C)(C)C)C(=O)O)c(-c5ccc(Cl)cc5)c4s3)ccc21 [Compound 35] , pEC50 = 7.08

Lab entry: HIV-IIIb IN T174I BT assay, compound Cc1cc2nc(-c3ccc4[nH]nc(C5CCN(C6COC6)CC5)c4c3)sc2c(-c2ccc(Cl)cc2)c1[C@H](OC(C)(C)C)C(=O)O [Compound 34] , pEC50 = 6.01
